Cited source for all entries: PubChem BioAssay AID652016

# TESTED ON: Luciferin 4-monooxygenase (Photinus pyralis)
# ASSAY SUMMARY: qHTS Assay for Inhibitors of Firefly Luciferase from the GSK Published Protein Kinase Inhibitor Set
# CONDITION SUMMARY: purified firefly luciferase, luminescence inhibition; series mostly up to 57.5 µM
Results filed as inconclusive are left out. Activity calls are given as the source filed them. Calls come from the whole dose curve; as a rule, active = well fitted inhibition curve with a large enough effect; inconclusive = small, poorly fitted or top-dose-only effect; inactive = flat fitted curve, though single readings scatter.

{"COMPOUND": "NS(=O)(=O)c1ccc(N=Nc2c(O)[nH]c3ccc(C(=O)NCc4ccncc4)cc23)cc1", "TESTED ON": "Luciferin 4-monooxygenase (Photinus pyralis)", "outcome": "inactive"}
{"COMPOUND": "CCn1c(-c2nonc2N)nc2cncc(C(=O)N3CCNCC3)c21", "TESTED ON": "Luciferin 4-monooxygenase (Photinus pyralis)", "outcome": "inactive"}
{"COMPOUND": "C#Cc1cccc(Nc2ncnc3ccc(OCCCCNCCS(C)(=O)=O)cc23)c1", "TESTED ON": "Luciferin 4-monooxygenase (Photinus pyralis)", "outcome": "inactive"}
{"COMPOUND": "CC(=O)NCc1cccc(C#Cc2cncnc2Nc2ccc(OCc3cccc(F)c3)c(Cl)c2)c1", "TESTED ON": "Luciferin 4-monooxygenase (Photinus pyralis)", "outcome": "inactive"}
{"COMPOUND": "CN1CCC(C(=O)Nc2n[nH]c3nc(-c4ccc(O)cc4)c(Br)cc23)CC1", "TESTED ON": "Luciferin 4-monooxygenase (Photinus pyralis)", "outcome": "inactive"}
{"COMPOUND": "CS(=O)(=O)c1ccc(Oc2nccc(-c3c(-c4ccc(F)cc4)ncn3C3CCNCC3)n2)cc1", "TESTED ON": "Luciferin 4-monooxygenase (Photinus pyralis)", "outcome": "inactive"}
{"COMPOUND": "NCc1ccc(-n2c(-c3nonc3N)nc3cnccc32)cc1", "TESTED ON": "Luciferin 4-monooxygenase (Photinus pyralis)", "outcome": "inactive"}
{"COMPOUND": "COc1ccc2ncn(-c3cc(OC(C)c4ccccc4Cl)c(C(N)=O)s3)c2c1 (stereo unspecified)", "TESTED ON": "Luciferin 4-monooxygenase (Photinus pyralis)", "outcome": "inactive"}
{"COMPOUND": "COc1ccc2ncnc(Nc3ccc(OCc4ccccc4)cc3)c2c1", "TESTED ON": "Luciferin 4-monooxygenase (Photinus pyralis)", "outcome": "inactive"}
{"COMPOUND": "NS(=O)(=O)c1ccc(-c2ccc3c(NC(=O)C4CC4)n[nH]c3c2)cc1", "TESTED ON": "Luciferin 4-monooxygenase (Photinus pyralis)", "outcome": "inactive"}
{"COMPOUND": "CCn1c(-c2nonc2N)nc2cnc(Oc3cccc(NC(=O)c4ccc(OCCN5CCOCC5)cc4)c3)cc21", "TESTED ON": "Luciferin 4-monooxygenase (Photinus pyralis)", "outcome": "inactive"}

---

# TESTED ON: Luciferin 4-monooxygenase (Photinus pyralis)
# ASSAY SUMMARY: qHTS Assay for Inhibitors of Firefly Luciferase from the GSK Published Protein Kinase Inhibitor Set
# CONDITION SUMMARY: purified firefly luciferase, luminescence inhibition; series mostly up to 57.5 µM
Inconclusive results are not listed. Calls of active or inactive are those of the source. Calls follow the shape of the dose curve; as a rule, active = well fitted inhibition curve with a large enough effect; inconclusive = small, poorly fitted or top-dose-only effect; inactive = flat fitted curve, though single readings scatter.
Labels: active, inactive

{"ENTRY SMILES": "NS(=O)(=O)c1ccc(N=Cc2c(O)[nH]c3ccc4ncsc4c23)cc1", "GROUP": "inactive"}
{"ENTRY SMILES": "CCS(=O)(=O)c1ccc(OC)c(Nc2ncc(-c3cccc(OC)c3)o2)c1", "GROUP": "inactive"}
{"ENTRY SMILES": "Cn1c(-c2nonc2N)nc2cnccc21", "GROUP": "inactive"}
{"ENTRY SMILES": "NS(=O)(=O)c1cccc(Nc2cc(-c3ccc(F)cc3)[nH]n2)c1", "GROUP": "active"}
{"ENTRY SMILES": "NS(=O)(=O)c1ccc(N=Nc2c(O)[nH]c3ccc(C(=O)NCCc4cnc[nH]4)cc23)cc1", "GROUP": "inactive"}
{"ENTRY SMILES": "Fc1cccc(COc2ccc(Nc3ncnc4sc(-c5ccco5)cc34)cc2Cl)c1", "GROUP": "inactive"}
{"ENTRY SMILES": "c1ccc(-c2[nH]ncc2-c2ccnc(-c3ccc(OCCN4CCOCC4)cc3)c2)nc1", "GROUP": "inactive"}
{"ENTRY SMILES": "COc1cc2ncn(-c3cc(OCc4ccccc4S(C)(=O)=O)c(C#N)s3)c2cc1OC", "GROUP": "inactive"}
{"ENTRY SMILES": "Fc1cccc(COc2ccc(Nc3ncncc3C#Cc3ccccc3)cc2Cl)c1", "GROUP": "inactive"}
{"ENTRY SMILES": "Oc1cccc(-c2nc(-c3ccccc3)[nH]c2-c2ccncc2)c1", "GROUP": "inactive"}

---

# TESTED ON: Luciferin 4-monooxygenase (Photinus pyralis)
# ASSAY SUMMARY: qHTS Assay for Inhibitors of Firefly Luciferase from the GSK Published Protein Kinase Inhibitor Set
# CONDITION SUMMARY: purified firefly luciferase, luminescence inhibition; series mostly up to 57.5 µM
Records with an inconclusive call do not appear. Calls of active or inactive are those of the source. Calls come from the whole dose curve; as a rule, active = well fitted inhibition curve with a large enough effect; inconclusive = small, poorly fitted or top-dose-only effect; inactive = flat fitted curve, though single readings scatter.
Labels: t for active, f for inactive

{"COMPOUND": "CN1CCC(n2cnc(-c3ccc(F)cc3)c2-c2ccnc(Nc3ccccc3)n2)CC1", "GROUP": "f"}
{"COMPOUND": "COc1ccc2cc(-c3c(-c4ccncc4)nc(-c4ccc(S(C)(=O)=O)cc4C)n3C)ccc2c1", "GROUP": "f"}
{"COMPOUND": "COc1cccc(C=NNc2ncnc3c2cnn3-c2cccc(OC)c2)c1", "GROUP": "f"}
{"COMPOUND": "CCn1c(-c2nonc2N)nc2cnc(Oc3cccc(NC(=O)c4ccc(N(C)C)cc4)c3)cc21", "GROUP": "t"}
{"COMPOUND": "COc1cc(N2CCN(C(C)C)CC2)ccc1Nc1nc(Nc2ccc(F)cc2C(=O)NCC(O)CO)c2cc[nH]c2n1 (stereo not given)", "GROUP": "f"}
{"COMPOUND": "O=C(Nc1n[nH]c2nnc(-c3cccnc3)cc12)C1CC1", "GROUP": "f"}
{"COMPOUND": "CC(=O)Nc1cccc(C#Cc2cncnc2Nc2ccc(OCc3cccc(F)c3)c(Cl)c2)n1", "GROUP": "f"}
{"COMPOUND": "NC(=O)c1cccc(Nc2nccc(Nc3cccc(F)c3)n2)c1", "GROUP": "t"}
{"COMPOUND": "COc1cc(Nc2ncc3c(C)nc(-c4cccc(Oc5ccccc5)c4)n3n2)cc(OC)c1OC", "GROUP": "f"}
{"COMPOUND": "Cn1cc(C=C2C(=O)Nc3cccnc32)c2ccccc21", "GROUP": "t"}

---

# TESTED ON: Luciferin 4-monooxygenase (Photinus pyralis) (UniProt P08659)
# Sequence (P08659 whole entry, looked up): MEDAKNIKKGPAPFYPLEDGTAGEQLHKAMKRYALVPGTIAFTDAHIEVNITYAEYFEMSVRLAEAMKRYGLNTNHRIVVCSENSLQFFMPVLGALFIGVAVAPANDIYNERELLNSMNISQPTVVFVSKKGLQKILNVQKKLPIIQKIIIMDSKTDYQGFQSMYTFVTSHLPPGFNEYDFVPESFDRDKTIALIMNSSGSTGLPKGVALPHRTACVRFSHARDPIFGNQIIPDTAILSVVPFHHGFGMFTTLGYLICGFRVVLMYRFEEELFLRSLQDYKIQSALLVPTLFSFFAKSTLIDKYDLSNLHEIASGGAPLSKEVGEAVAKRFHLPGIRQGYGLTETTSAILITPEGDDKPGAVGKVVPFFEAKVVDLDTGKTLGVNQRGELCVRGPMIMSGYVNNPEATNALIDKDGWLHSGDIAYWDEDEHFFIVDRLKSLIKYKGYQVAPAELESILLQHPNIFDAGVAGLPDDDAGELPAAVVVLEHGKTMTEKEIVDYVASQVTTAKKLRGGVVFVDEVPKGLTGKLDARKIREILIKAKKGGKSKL
# ASSAY SUMMARY: qHTS Assay for Inhibitors of Firefly Luciferase from the GSK Published Protein Kinase Inhibitor Set; note: potency is the fitted concentration of half-maximal effect
# CONDITION SUMMARY: purified firefly luciferase, luminescence inhibition; series mostly up to 57.5 µM
Inconclusive results are not listed. Activity calls are given as the source filed them. The call rests on the fitted dose curve; in most records, active means well fitted inhibition curve with a large enough effect; inconclusive means small, poorly fitted or top-dose-only effect; inactive means flat fitted curve, though single readings scatter.

{"ENTRY SMILES": "CCS(=O)(=O)c1ccc(OC)c(Nc2ncc(-c3ccccc3Cl)o2)c1", "TESTED ON": "Luciferin 4-monooxygenase (Photinus pyralis) (UniProt P08659)", "Potency": "inactive"}
{"ENTRY SMILES": "CCOc1ccc2c(-c3ccnc(Nc4cccc(C(F)(F)F)c4)n3)cnn2n1", "TESTED ON": "Luciferin 4-monooxygenase (Photinus pyralis) (UniProt P08659)", "Potency": "inactive"}
{"ENTRY SMILES": "c1cc(-c2cnn3nc(N4CCOCC4)ccc23)nc(NC2CC2)n1", "TESTED ON": "Luciferin 4-monooxygenase (Photinus pyralis) (UniProt P08659)", "Potency": "4610 nM (active)"}
{"ENTRY SMILES": "COc1cc2c(cc1Nc1nc(Nc3ccsc3C(N)=O)c3cc[nH]c3n1)N(C(=O)CN(C)C)CCC2", "TESTED ON": "Luciferin 4-monooxygenase (Photinus pyralis) (UniProt P08659)", "Potency": "inactive"}
{"ENTRY SMILES": "Nc1ncc(-c2cccc(S(N)(=O)=O)c2)c2scc(-c3ccc(F)c(Cl)c3)c12", "TESTED ON": "Luciferin 4-monooxygenase (Photinus pyralis) (UniProt P08659)", "Potency": "inactive"}
{"ENTRY SMILES": "COc1ccccc1Nc1ncc(-c2ccccc2)o1", "TESTED ON": "Luciferin 4-monooxygenase (Photinus pyralis) (UniProt P08659)", "Potency": "1030 nM (active)"}
{"ENTRY SMILES": "CCS(=O)(=O)c1ccc(OC)c(Nc2ncc(-c3cccc(-c4ccccc4F)c3)o2)c1", "TESTED ON": "Luciferin 4-monooxygenase (Photinus pyralis) (UniProt P08659)", "Potency": "inactive"}
{"ENTRY SMILES": "CCn1c(-c2nonc2N)nc2cncc(C(=O)NCCNC)c21", "TESTED ON": "Luciferin 4-monooxygenase (Photinus pyralis) (UniProt P08659)", "Potency": "inactive"}
{"ENTRY SMILES": "COc1ccc(-c2oc3ncnc(N)c3c2-c2ccc(NC(=O)Nc3cc(C(F)(F)F)ccc3F)cc2)cc1", "TESTED ON": "Luciferin 4-monooxygenase (Photinus pyralis) (UniProt P08659)", "Potency": "inactive"}
{"ENTRY SMILES": "CCn1c(-c2nonc2N)nc2c(C#CC(C)(C)O)nc(CN3CCCC3)cc21", "TESTED ON": "Luciferin 4-monooxygenase (Photinus pyralis) (UniProt P08659)", "Potency": "inactive"}
